Numbers sourced from the supplement of paper PMC6555819.

Measured PBM binding z-score, listed per entry for reference.
tested on: RXRa homodimer (NR concentration 180 nM); assay: PBM binding z-score (relative to random genomic background probes); higher = stronger binding; sequences stand for … in GC…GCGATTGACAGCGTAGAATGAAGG

- Macromolecule sequence: "TGAATGAGGTTATTAGATCAGGGAACGTTGCAAA"
  Subject of test: "RXRa homodimer (NR concentration 180 nM)"
  PBM binding z-score: 1.66
- Macromolecule sequence: "TAGCCTAGGTCATGCGGGCGAGTATAGTGTCGGC"
  Subject of test: "RXRa homodimer (NR concentration 180 nM)"
  PBM binding z-score: 2.68
- Macromolecule sequence: "AGAATGAGGTTATTAAGATAAGGGAATTGCGGTC"
  Subject of test: "RXRa homodimer (NR concentration 180 nM)"
  PBM binding z-score: 1.8
- Macromolecule sequence: "CGAACTATGTCATCCAGGACAGTGAATACATTGA"
  Subject of test: "RXRa homodimer (NR concentration 180 nM)"
  PBM binding z-score: 0.578
- Macromolecule sequence: "TCGAGCAGGTTAGGGGCATTCAGAATGGCGTCGA"
  Subject of test: "RXRa homodimer (NR concentration 180 nM)"
  PBM binding z-score: 0.719
- Macromolecule sequence: "TTGCCAAGGTGAGCTGAGGTCGTTGATCCAACTC"
  Subject of test: "RXRa homodimer (NR concentration 180 nM)"
  PBM binding z-score: 0.78

---

tested on: RXRa homodimer (NR concentration 180 nM); experiment: PBM binding z-score (relative to random genomic background probes); higher = stronger binding; sequences stand for … in GC…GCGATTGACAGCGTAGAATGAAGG
Measured PBM binding z-score, listed per entry for reference.

- Macromolecule sequence: "CCTACTTGGCCATTCAGAGGTCATTGATCATATG"
  Subject of test: "RXRa homodimer (NR concentration 180 nM)"
  PBM binding z-score: 3.73
- Macromolecule sequence: "TATACAGGGTTAAAGGCCAGAGTACGAATGTCGA"
  Subject of test: "RXRa homodimer (NR concentration 180 nM)"
  PBM binding z-score: 3.28
- Macromolecule sequence: "CCGACTAGGTTATGGGGCATTCAGGCAACGGTGA"
  Subject of test: "RXRa homodimer (NR concentration 180 nM)"
  PBM binding z-score: 0.666
- Macromolecule sequence: "TCTAGCAGGCCAGAGGGTCTCTCAAGAGGTACGG"
  Subject of test: "RXRa homodimer (NR concentration 180 nM)"
  PBM binding z-score: -0.223
- Macromolecule sequence: "ATAGGTAGGTTAAGGGTCATTCAGGTTGGTTCGC"
  Subject of test: "RXRa homodimer (NR concentration 180 nM)"
  PBM binding z-score: 6.15
- Macromolecule sequence: "CCTACTCGGCCAAAGGTCATTGATTCCAATGCTC"
  Subject of test: "RXRa homodimer (NR concentration 180 nM)"
  PBM binding z-score: 6.26

---

test system: PPARg homodimer (NR concentration 180 nM); experiment: PBM binding z-score (relative to random genomic background probes); higher = stronger binding; sequences stand for … in GC…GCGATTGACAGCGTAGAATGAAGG
Measurement type: PBM binding z-score

- Macromolecule sequence: "CCTTCTGGGCCAAAAAGGTCATTGATGCCGATAA"
  Data value: 3.67
- Macromolecule sequence: "ACTTACGGTTCAACGAGGTTATAGCACGCGTATA"
  Data value: 1.64
- Macromolecule sequence: "TCGAGTAGGTTAGTCGGGGTATTCAGCCAACATA"
  Data value: -0.0532
- Macromolecule sequence: "GATACAGGGTCAGCTAGAGGCCGGAGTATGGAAA"
  Data value: 1.78
- Macromolecule sequence: "CAAACTAGGTCAAGGGCAAAGTCGGTTTGTGCCA"
  Data value: 3.97
- Macromolecule sequence: "GCAGACAGGTGAAATGCAGGTAACTCAGGGTGGC"
  Data value: -0.0768
- Macromolecule sequence: "CACACTAGGTCACCGGAAGGTCAAAGTCCGCATG"
  Data value: 7.05
- Macromolecule sequence: "ACTAGCAGGGCAAGGGTCACTCAAGATTAGTCCG"
  Data value: 1.91
- Macromolecule sequence: "CCGACTGGGGCAGAAAGGTAACCATACCATCCGG"
  Data value: 0.0459
- Macromolecule sequence: "AATAGCAGGCCAAGGGTCACTCAAGATTAGTCCG"
  Data value: 1.57
- Macromolecule sequence: "AGCGAAAGGTCGACGAGGTGAGTATACACCGTTT"
  Data value: 1.07
- Macromolecule sequence: "CCTTACAGGTCACTGACAGGTTATAGCATTTGGA"
  Data value: 3.27
- Macromolecule sequence: "GCTCGGAGAACAAGGTCAGAGCTTTGTCCGTAGA"
  Data value: 0.759
- Macromolecule sequence: "TCTATTAGGTGATTAGGGCAACCGAAACAGCGGA"
  Data value: 0.876
- Macromolecule sequence: "TCGAGTAGGTTACCAATGGGGAATTCAGCTTTCT"
  Data value: -0.227
- Macromolecule sequence: "GCTGGTAGATCAAGGTTAAGAAAGACTAAGCTAA"
  Data value: -0.421
- Macromolecule sequence: "GGCACGAGGGCAAGTTGATAGCAGAGTTTGATGG"
  Data value: 0.282
- Macromolecule sequence: "ACTAGCAGGCCAAGTTTGGGACACTCAAACAAAG"
  Data value: -0.893
- Macromolecule sequence: "ACTAGCAGGCCAAGTTTGGGTCACTCGAACAAAG"
  Data value: 0.399
- Macromolecule sequence: "CGTCCAAGGTCATAGGTCAGTGAAGAGATGACGG"
  Data value: 3.35
- Macromolecule sequence: "CCGAGTAGGTTATGCGGCATTCAGGCAACGGTGA"
  Data value: 0.671
- Macromolecule sequence: "TCTTGTAGATCAACAGGAGGTTAAGATAGATCGA"
  Data value: 0.31
- Macromolecule sequence: "AGAATGAGGTTACCAACGATCAGGGAAACGCTTG"
  Data value: 0.587
- Macromolecule sequence: "TCGAGTAGGTTAGGTGCATTCAGAATGGCGTCGA"
  Data value: -0.132
- Macromolecule sequence: "ACTAGCAGGGCAAGTTTGGGTCACTCAAACAAAG"
  Data value: 0.449
- Macromolecule sequence: "CGTCCAAGGTCAGCAGGACAGTGAAAGCGACGTG"
  Data value: 1.75
- Macromolecule sequence: "ACAGACAGGTGATGAAGGTATCTCAGGCTATCAT"
  Data value: 0.117
- Macromolecule sequence: "TAGCCTAGGTCCTTGGGCCAGTATAGTACGCATC"
  Data value: -2.22
- Macromolecule sequence: "CTTGCTAGGTCAATGGTCAGCTAAAGCAGCTCGC"
  Data value: 0.936
- Macromolecule sequence: "CCGGACAGGTGAGAAGGTAACTCAGCCTCGATTA"
  Data value: 0.569
- Macromolecule sequence: "ACTCGGAGGACAAAGGTCAGTGCTACGCCAGTGA"
  Data value: 3.66
- Macromolecule sequence: "GGAACGAGGGCAAAGTTAATAGCATCTGTCGACG"
  Data value: 0.877
- Macromolecule sequence: "ACTTACGTGTCAACGAGGTTATAGCACGCGTATA"
  Data value: 0.479
- Macromolecule sequence: "CCGAGTATGTTATGGGGCATTCAGGCAACGGTGA"
  Data value: 0.937
- Macromolecule sequence: "TCGAGGAGGTTAGGGGCATTCAGAATGGCGTCGA"
  Data value: 1.01
- Macromolecule sequence: "ACTTACGGGTCAACGAGGTTATAGCCCGCGTATA"
  Data value: 2.12
- Macromolecule sequence: "CCTCCTGGGCCAAGGTCATTGATCAGTCAAAGCA"
  Data value: 1.55
- Macromolecule sequence: "GCTGCTAGGTCAGGTTAGTCAGCTAACGGGTACG"
  Data value: 0.349
- Macromolecule sequence: "AGAACGAGGGCACGCCGAGTTGATAGCAGAGTAG"
  Data value: 0.0729
- Macromolecule sequence: "ATCTCTAGGTAAGACTCAGTTCGGTGAAGAACGC"
  Data value: 0.778
- Macromolecule sequence: "CCTTACGGGCCAAGGTTATAGCACGGGTGGTACG"
  Data value: 0.309
- Macromolecule sequence: "GATACAGGGTCAGCTAGACGCCAGAGTATGGAAA"
  Data value: 1.15
- Macromolecule sequence: "ACTAGCGGGCCAAGGGTCACTCAAGATTAGTCCG"
  Data value: 0.892
- Macromolecule sequence: "CCTTACGGGTCAAGGCTATAGCACGGGTGGTACG"
  Data value: 1.08
- Macromolecule sequence: "TCTGCTAGGTCAACGATGGTCAGGTAATCTGCTA"
  Data value: 0.216
- Macromolecule sequence: "TCTGGTAGGTCAACGATGGTCAGCTAATCTGCTA"
  Data value: 2.39
- Macromolecule sequence: "TAGCCTAGGTCATGGGCCAGTATACCACGCGAAC"
  Data value: 1.77
- Macromolecule sequence: "TCTGCTAGGTCAGTTGGTCAGATAACGAGCTGCC"
  Data value: 0.482
- Macromolecule sequence: "ACAGACAGGTGATGAAGGTTACTCAGGCTATCAT"
  Data value: 0.281
- Macromolecule sequence: "AGAATGAGGTTATACATAGATCAGGGAAGAAAGT"
  Data value: 1.21
- Macromolecule sequence: "CCTACTGGGCCATAAAGGTCATTGATGCCGATAA"
  Data value: 1.94
